- Assay Remarks: AUC (0 to 6 hrs) in rat at 10 mg/kg, po
- Type: ADME, organism-based
- Design: time < 6 hr, dose 10 mg/kg, route oral
- Experimental Parameters: plasma
Endpoint: AUC(0-t) at 6 h (ng·h/mL)

| Compound | Endpoint | Data Value |
| --- | --- | --- |
| Cc1ccc(CNS(=O)(=O)N2CCN(/C(C=N)=C(\OC3CCC(F)C3)C(=O)Nc3cc(F)cc(F)c3)CC2)cc1N (mixture of isomers) | AUC(0-t) at 6 h | 2580 |
| Cc1cc(CNS(=O)(=O)N2CCN(/C(C=N)=C(\OCC3(C)CC3)C(=O)Nc3cccc(Cl)c3)CC2)ccc1N | AUC(0-t) at 6 h | 900 |
| CC(NS(=O)(=O)N1CCN(/C(C=N)=C(\OCC2(C)CC2)C(=O)Nc2cccc(Cl)c2)CC1)c1cccc(N)c1 (configuration not stated) | AUC(0-t) at 6 h | 1300 |
| CC1(CO/C(C(=O)Nc2cccc(Cl)c2)=C(/C=N)N2CCN(S(=O)(=O)NCc3ccnc(N)c3)CC2)CC1 | AUC(0-t) at 6 h | 50 |
| COc1ccc(CNS(=O)(=O)N2CCN(/C(C=N)=C(\OCC3(C)CC3)C(=O)Nc3cccc(Cl)c3)CC2)cc1N | AUC(0-t) at 6 h | 440 |
| Cc1ccc(CNS(=O)(=O)N2CCN(/C(C=N)=C(\OCC3(C)CC3)C(=O)Nc3cccc(Cl)c3)CC2)cc1N | AUC(0-t) at 6 h | 1410 |
| COc1cc(CNS(=O)(=O)N2CCN(/C(C=N)=C(\OCC3(C)CC3)C(=O)Nc3cccc(Cl)c3)CC2)ccc1N | AUC(0-t) at 6 h | 860 |

###

- Assay Remarks: Clearance in human hepatocytes assessed per million cells
- Type: ADME, cell-based, Hepatocyte
- Experimental Parameters: read-out: CLH
Let's look at some compounds and their measured hepatocyte CLint.

| Smiles Notation | hepatocyte CLint |
| --- | --- |
| Cc1cc(CNS(=O)(=O)N2CCN(/C(C=N)=C(\OCC3(C)CC3)C(=O)Nc3cccc(Cl)c3)CC2)ccc1N | 13.4 µL/min/1e6 cells |
| Cc1ccc(CNS(=O)(=O)N2CCN(/C(C=N)=C(\OCC3(C)CC3)C(=O)Nc3cccc(Cl)c3)CC2)cc1N | 19.6 µL/min/1e6 cells |

###

- Test system: Nakaseomyces glabratus
- Assay Remarks: Antifungal activity against Candida glabrata C624 by broth dilution method
- Format: functional
- Experimental Parameters: read-out: MIC100
Endpoint: MIC (µg/mL)

| Smiles Notation | Endpoint | Qualifier Sign | Data Value |
| --- | --- | --- | --- |
| CC1(CO/C(C(=O)Nc2cccc(Cl)c2)=C(/C=N)N2CCN(S(=O)(=O)NCc3ccc(N)c(F)c3)CC2)CC1 | MIC | = | 0.13 |
| CC(C)NS(=O)(=O)N1CCN(/C(C=N)=C(\OC2CCCC2)C(=O)Nc2cccc(Cl)c2)CC1 | MIC | = | 0.03 |
| COc1cc(CNS(=O)(=O)N2CCN(/C(C=N)=C(\OCC3(C)CC3)C(=O)Nc3cccc(Cl)c3)CC2)ccc1N | MIC | = | 0.52 |
| Cc1cc(CNS(=O)(=O)N2CCN(/C(C=N)=C(\OCC3(C)CC3)C(=O)Nc3cccc(Cl)c3)CC2)ccc1N | MIC | = | 0.52 |
| CC1(CO/C(C(=O)Nc2cccc(Cl)c2)=C(/C=N)N2CCN(S(=O)(=O)NCc3ccc(F)c(N)c3)CC2)CC1 | MIC | = | 0.52 |
| COC(=O)c1ccc(CNS(=O)(=O)N2CCN(/C(C=N)=C(\OCC3(C)CC3)C(=O)Nc3cccc(Cl)c3)CC2)cc1 | MIC | = | 0.13 |
| N=C/C(=C(/OC1CCCC1)C(=O)Nc1cccc(Cl)c1)N1CCN(S(N)(=O)=O)CC1 | MIC | = | 16.7 |
| CCN(CC)S(=O)(=O)N1CCN(/C(C=N)=C(\OC2CCCC2)C(=O)Nc2cccc(Cl)c2)CC1 | MIC | = | 0.2 |
| CC(C)N(C)S(=O)(=O)N1CCN(/C(C=N)=C(\OC2CCCC2)C(=O)Nc2cccc(Cl)c2)CC1 | MIC | = | 0.39 |
| CC1(CO/C(C(=O)Nc2cccc(Cl)c2)=C(/C=N)N2CCN(S(=O)(=O)NCc3cccnc3)CC2)CC1 | MIC | = | 2.08 |
| CC1(CO/C(C(=O)Nc2cccc(Cl)c2)=C(/C=N)N2CCN(S(=O)(=O)NCc3ccccc3)CC2)CC1 | MIC | = | 2.08 |
| COc1ccc(CNS(=O)(=O)N2CCN(/C(C=N)=C(\OCC3(C)CC3)C(=O)Nc3cccc(Cl)c3)CC2)cc1N | MIC | = | 0.52 |
| N=C/C(=C(/OC1CCCC1)C(=O)Nc1cccc(Cl)c1)N1CCN(S(=O)(=O)N2CCOCC2)CC1 | MIC | = | 0.39 |
| COc1ccc(CNS(=O)(=O)N2CCN(/C(C=N)=C(\OCC3(C)CC3)C(=O)Nc3cccc(Cl)c3)CC2)cc1OC | MIC | = | 0.06 |
| N=C/C(=C(/OC1CCCC1)C(=O)Nc1cccc(Cl)c1)N1CCN(S(=O)(=O)NCc2ccccc2)CC1 | MIC | < | 0.02 |
| N=C/C(=C(/OC1CCCC1)C(=O)Nc1cccc(Cl)c1)N1CCN(S(=O)(=O)Nc2ccccc2)CC1 | MIC | = | 0.16 |
